Source: patent US6833456B2

assay: Mouse PK assay; format: in vivo, B6 female mice; settings: female, B6, mouse, plasma, po, 50 mg/kg
READOUT_KIND: AUC (ng·h/mL)

1. CNC(=O)n1c(C)cc2cc(Nc3ccnc4cc(C(=O)N5CCC[C@@H]5COC)sc34)ccc21
2. COC[C@H]1CCCN1C(=O)c1cc2nccc(Nc3ccc4c(c3)cc(C)n4C(=O)NC3CC3)c2s1
3. Cc1cc2cc(Nc3ccnc4cc(-c5nccn5C)sc34)ccc2n1C(=O)NC(C)C
Ask: Task field, ranking: reported AUC, descending order. Put the labels in the order asked and list them.
Result: 3, 2, 1
(3: 10600 ng·h/mL, 2: 5070 ng·h/mL, 1: 78 ng·h/mL)

I. CNC(=O)n1c(C)cc2cc(Nc3ccnc4cc(C(=O)N5CCC[C@H]5CO)sc34)ccc21
II. C#CCNC(=O)n1c(C)c(Cl)c2c(F)c(Oc3ccnc4cc(C(=O)N5CC[C@H](O)C5)sc34)ccc21
Ask: Could you check which of I and II has a smaller value for AUC? Answer format: the label of the selected item.
Result: II

P. CNC(=O)n1c(C)cc2cc(Nc3ccnc4cc(C(=O)N5CC[C@@H](O)C5)sc34)ccc21
Q. Cc1cc2cc(Nc3ccnc4cc(C(=O)N5CC[C@@H](O)C5)sc34)ccc2n1C(=O)NC1CC1
R. Cc1cc2cc(Nc3ccnc4cc(C(=O)N5CCC[C@H]5CO)sc34)ccc2n1C(=O)NC1CC1
S. C#CCNC(=O)n1c(C)cc2cc(Nc3ccnc4cc(C(=O)N5CC[C@@H](OC)C5)sc34)ccc21
Ask: Please give the order of these compounds when sorted by AUC, largest value leading. Put the labels in the order asked and list them.
Result: S, R, P, Q
(S: 2530 ng·h/mL, R: 43 ng·h/mL, P: 12 ng·h/mL, Q: 6 ng·h/mL)

1. C#CCNC(=O)n1c(C)cc2cc(Oc3ccnc4cc(C(=O)N5CC[C@@H](OC)C5)sc34)ccc21
2. COC[C@@H]1CCCN1C(=O)c1cc2nccc(Oc3ccc4c(c3)cc(C)n4C(=O)NCC#CCO)c2s1
Ask: Could you check which of 1 and 2 has a smaller value for AUC? Answer format: the label of the selected item.
Result: 2
(2: 4060 ng·h/mL, 1: 321000 ng·h/mL)

---

target: PDGFRβ (Homo sapiens); experiment: PAE-PDGFRβ phosphorylation in PAE-PDGFRB cells assay; conditions: PAE cells overexpressing human PDGFRβ, PDGF-BB stimulated; read-out: PAE PDGFR autophos IC50
Sequence (P09619 33-1106): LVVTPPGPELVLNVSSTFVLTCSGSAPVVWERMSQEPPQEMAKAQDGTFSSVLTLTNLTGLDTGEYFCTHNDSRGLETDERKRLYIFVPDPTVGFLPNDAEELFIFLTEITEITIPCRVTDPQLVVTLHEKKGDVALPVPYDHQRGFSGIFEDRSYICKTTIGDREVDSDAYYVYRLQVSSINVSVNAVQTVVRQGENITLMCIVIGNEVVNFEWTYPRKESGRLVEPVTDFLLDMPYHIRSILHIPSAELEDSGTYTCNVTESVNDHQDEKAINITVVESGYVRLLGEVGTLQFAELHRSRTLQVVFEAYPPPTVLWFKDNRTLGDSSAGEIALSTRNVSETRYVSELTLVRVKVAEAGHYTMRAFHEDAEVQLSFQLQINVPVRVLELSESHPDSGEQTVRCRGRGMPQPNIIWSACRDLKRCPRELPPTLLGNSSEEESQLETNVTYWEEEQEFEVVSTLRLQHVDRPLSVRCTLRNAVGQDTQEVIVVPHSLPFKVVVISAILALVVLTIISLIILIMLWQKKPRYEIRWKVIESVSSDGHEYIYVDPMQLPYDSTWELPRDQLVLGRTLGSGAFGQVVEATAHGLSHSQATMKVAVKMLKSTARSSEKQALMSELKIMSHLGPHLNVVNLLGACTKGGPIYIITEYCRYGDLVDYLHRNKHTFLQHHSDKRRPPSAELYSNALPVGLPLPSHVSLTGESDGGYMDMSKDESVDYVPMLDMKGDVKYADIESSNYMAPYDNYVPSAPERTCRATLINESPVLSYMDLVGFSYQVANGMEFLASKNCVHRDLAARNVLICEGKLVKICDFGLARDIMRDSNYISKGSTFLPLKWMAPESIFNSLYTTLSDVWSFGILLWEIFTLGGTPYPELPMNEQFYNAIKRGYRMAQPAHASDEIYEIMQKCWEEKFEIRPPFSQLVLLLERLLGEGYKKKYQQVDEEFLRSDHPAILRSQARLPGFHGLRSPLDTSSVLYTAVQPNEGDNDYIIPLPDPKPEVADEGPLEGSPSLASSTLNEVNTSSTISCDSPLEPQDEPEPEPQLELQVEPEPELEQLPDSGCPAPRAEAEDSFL
READOUT_KIND: IC50 (nM)

CNC(=O)n1c(C)cc2c(F)c(Oc3ccnc4cc(-c5nc(C(C)(C)O)cs5)sc34)ccc21 = 18.4

a. CNC(=O)n1c(C)cc2cc(Oc3ccnc4cc(C(=O)N5CC[C@@H](O)C5)sc34)ccc21
b. CO[C@H]1CCN(C(=O)c2cc3nccc(Oc4ccc5c(c4F)c(Cl)c(C)n5C(=O)NC4CC4)c3s2)C1
c. CNC(=O)n1c(C)cc2cc(Oc3ccnc4cc(C(=O)N5CC[C@H](OC)C5)sc34)ccc21
d. CNC(=O)n1c(C)cc2cc(Nc3ccnc4cc(C(=O)N5CCC[C@@H]5CO)sc34)ccc21
e. CNC(=O)n1c(C)cc2c(F)c(Oc3ccnc4cc(C(=O)N5CCC[C@H]5CO)sc34)ccc21
Ask: Please give the order of these compounds when sorted by IC50, largest value leading. Put the labels in the order asked and list them.
Result: d, b, e, c, a
(d: 239 nM, b: 32 nM, e: 18.2 nM, c: 10.5 nM, a: 5.8 nM)
